Data origin, for the record: ChEMBL document CHEMBL4043078

System: UniProt P21554
Sequence (P21554 whole entry): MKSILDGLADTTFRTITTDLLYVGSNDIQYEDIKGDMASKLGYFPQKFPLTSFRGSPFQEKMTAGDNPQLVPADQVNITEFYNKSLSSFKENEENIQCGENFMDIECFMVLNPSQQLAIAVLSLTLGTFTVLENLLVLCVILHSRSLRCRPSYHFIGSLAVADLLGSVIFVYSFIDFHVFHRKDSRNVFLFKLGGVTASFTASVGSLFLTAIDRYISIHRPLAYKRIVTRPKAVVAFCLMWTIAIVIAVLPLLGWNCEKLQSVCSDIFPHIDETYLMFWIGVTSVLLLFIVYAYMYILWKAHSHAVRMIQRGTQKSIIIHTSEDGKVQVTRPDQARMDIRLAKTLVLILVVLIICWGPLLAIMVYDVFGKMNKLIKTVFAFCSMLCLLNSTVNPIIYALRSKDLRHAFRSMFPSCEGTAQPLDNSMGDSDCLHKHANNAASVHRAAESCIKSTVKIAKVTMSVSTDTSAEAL
Assay Summary: Displacement of [3H]CP55,940 from human CB1 receptor expressed in CHOK1 cell membranes at 1 uM after 2 hrs by liquid scintillation counting method relative to control
// values below are reported inhibition

Compound	System	inhibition
CCC(/C=C(C)/C=C/C(=O)c1c(O)c(-c2ccc(O)cc2)c[nH]c1=O)CO (stereo not drawn)	UniProt P21554	< 20%
CCC(C)CC(C)/C=C(C)/C=C/C(=O)c1c(O)c(-c2ccc(O)cc2)c[nH]c1=O (stereo not drawn)	UniProt P21554	40%
CCC(/C=C/C=C/C=C/C(=O)c1c(O)c(-c2ccc(O)cc2)c[nH]c1=O)CO (stereo not drawn)	UniProt P21554	< 20%
C=CCCCOC(=O)c1c(O)c(-c2ccc(O)cc2)c[nH]c1=O	UniProt P21554	< 20%
CCCCCCCCCCCCCCCCCC(=O)c1c(O)c(-c2ccc(O)cc2)c[nH]c1=O	UniProt P21554	< 20%
CCC(C)CC(C)/C=C(C)/C=C/C=C/C(=O)c1c(O)c(-c2ccc(O)cc2)c[nH]c1=O (stereo not drawn)	UniProt P21554	< 20%
CC[C@@H](C)/C=C(C)/C=C/C(=O)c1c(O)c(-c2ccc(O)cc2)c[nH]c1=O	UniProt P21554	40%
CCC(C)/C=C(C)/C=C/C=C/C(=O)c1c(OC)c(-c2ccc(O)cc2)c[nH]c1=O (stereo not drawn)	UniProt P21554	< 20%
CCCCCCCCCCCC(=O)c1c(O)c(-c2ccc(O)cc2)c[nH]c1=O	UniProt P21554	50%
CCCCCCCC(=O)c1c(O)c(-c2ccc(O)cc2)c[nH]c1=O	UniProt P21554	< 20%
CCC(C)/C=C(C)/C=C/C=C/C=C/C(=O)c1c(O)c(-c2ccc(O)cc2)c[nH]c1=O (stereo not drawn)	UniProt P21554	< 20%
CCC(C)/C=C(C)/C=C/C=C/C(=O)c1c(O)c(-c2ccc(O)cc2)c[nH]c1=O (stereo not drawn)	UniProt P21554	< 20%
CCCCCCCCCCOC(=O)c1c(O)c(-c2ccc(O)cc2)c[nH]c1=O	UniProt P21554	< 20%
